Values from the supplement of paper PMC9170038

System: MS2 coat protein
Assay: apparent KD of MS2 coat protein; higher = weaker reporter binding
Conditions: Eterna round: R107; input ligand: arginine 13.2 mM
value-type: apparent KD of MS2 coat protein (nM)
Please give a number only; it is taken to be in nM.

# sequence-record, unit-string, reported-measurement
data = [
    ("UGAUACCAGUCGGCCGCCACUACAUGAGGAUCACCCAUGUAUCCUCAACUGCUAGAUACUAGCAGUAGGACCGGGACUGGUAUCU", "nM", 164),
    ("GUCCUAGCGAGCACUCGCUAGGACGCGGAUACCAGCGAGGUCCAUCGCCCUUGGCAGCCGAACAUGAGGAUCACCCAUGUCGGUA [#1 Same State - Theophylline A Attempt #17 (HarryS)]", "nM", 12.6),
    ("AAUUUUAACGGAAGGAGCGUCACGUAAUUCAUACAUGAGGAUCACCCAUGUUAGUUGUAGAGACAGGUAGGUCGCCGUUAUUUGA [JR_AAArginiB_Sub025]", "nM", 15.7),
    ("GGAUAGGACACGGCCGCCACUAGCUAGGAUACUAGCAACAUUUCCUCACUUGAGGAUCACCCAAGUAGGACCGGGUGUCCUAUCG", "nM", 95.2),
    ("GCCAUCGGCGGAAGCCGAUGGUAUACGGAAGGAGCGCACGAAAGUGCAGGUAGGUCGCUGAACAUGAGGAUCACCCAUGUAAUAA [#28 Same State - Arginine A]", "nM", 17.6),
]

**Q:** Would you kindly share the measured apparent KD of MS2 coat protein for CCAUAGGGUAAAUACGUAAUCAUAUCUGAAGGAGCGUGGAUAUACACAGGUAGGUCGCAGAAUCACAUGAGGAUCACCCAUGUCU [Same State Arginine A GF12] ?
**A:** 28.8

**Q:** Entry CCCAAUUAGAUCUUUGGAAUUUUACUCGAAGGAGCGUCAUAGUAGGCAGGUAGGUCGCGAGACAUGAGGAUCACCCAUGUAGAGA [btbmullin] : reported apparent KD of MS2 coat protein = ?
**A:** 33

**Q:** Endpoint output: apparent KD of MS2 coat protein of UCGCUCUGGGUGAGAUCCGGAGAUGUGGAAGGAGCGCUGGAAACAGCAGGUAGGUCGCCAACGGACAUGAGGAUCACCCAUGUAC [Same State - Arginine A (Freestyle 19)] . Value?
**A:** 41.4

**Q:** Please look up its apparent KD of MS2 coat protein: UAUACAUGAGGAUCACCCAUGUGCCAUGAUACCAGACAUGAAAAUGUCCCUUGGCAGCAUGGUGAUUGUAUAGCGGGAAACCCGA [Utechov]
**A:** 81.3

**Q:** Would you kindly share the measured apparent KD of MS2 coat protein for `GGGUACAUCGCGGCCGCCACUCAUGUAAAUUCAUGAGGAUCACCCAUGACGAUGGAGACAUCGGAGAGGACCGGGUGAUGUACCG` ?
**A:** 26.5

**Q:** Request the reported apparent KD of MS2 coat protein associated with GUAGCGACGGCGGCCGCCACUCACAGGUGAGGGUAGACCAACCUUCACAUGAGGAUCACCCAUGUGAGGACCGGGCUGUCGCUAC [#13 Exclusion Tryptophan B]
**A:** 36.3

**Q:** So what's the measured apparent KD of MS2 coat protein for this one? GCUAGGUCAUCGGCCGCCACUAACGAUGGCUCCAACAUGAGGAUCACCCAUGUGCCACAUGCGCAUAGGACCGGGAUGACCUAGC [SSTB NP+V+V2 #3]
**A:** 11.3
